Molecular target: T1, human CXCR2 (human, UniProt P25025 1-360)
T1 construct: Expressed on Flp-In CHO cells (FACS, Fab-ZAP, ADCC, CDC) or on bought PathHunter CHO cells (beta-arrestin assay); the construct in the PathHunter cells is not described; also called chemokine receptor CXCR2; CXCR2 CHO Flp-In cells
T1 sequence: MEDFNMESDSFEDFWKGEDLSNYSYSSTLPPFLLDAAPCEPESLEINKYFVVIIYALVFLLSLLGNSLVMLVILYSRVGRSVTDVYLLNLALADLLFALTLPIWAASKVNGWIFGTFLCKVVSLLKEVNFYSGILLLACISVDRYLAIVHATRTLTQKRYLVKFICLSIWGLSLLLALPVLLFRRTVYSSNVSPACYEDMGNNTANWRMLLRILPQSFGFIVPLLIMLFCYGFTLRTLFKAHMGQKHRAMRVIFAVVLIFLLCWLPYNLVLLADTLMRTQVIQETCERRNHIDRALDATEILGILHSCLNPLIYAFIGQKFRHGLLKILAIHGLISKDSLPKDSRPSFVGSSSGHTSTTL
Experiment: FACS, CXCR2 CHO Flp-In cells, Fab
reported_property: binding result

CX2-Mab #11 (Fab, V domains shown) VH: QVQLVQSGAEVKKPGSSVKVSCKASGGTFTDYAISWVRQAPGQGLEWMGGIIPIFGTANYAQKFQGRVTITADESTSTAYMELSSLRSEDTAVYYCARHSYSFDYWGQGTLVTVSS VL: DIELTQPPSVSVSPGQTASITCSGDNLRKKYAYWYQQKPGQAPVLVIGSKSNRPSGIPERFSGSNSGNTATLTISGTQAEDEADYYCQSYDSGRVVFGGGTKLTVLG; binds
CX2-Mab #14 (Fab, V domains shown) VH: QVQLQQSGPGLVKPSQTLSLTCAISGDSVSSNSAAWNWIRQSPSRGLEWLGRIYYRSKWYNDYAVSVKSRITINPDTSKNQFSLQLNSVTPEDTAVYYCARDVPYYSDYSHYVYYYGAWFDVWGQGTLVTVSS VL: DIELTQPPSVSVSPGQTASITCSGDSIPYNYAHWYQQKPGQAPVLVIYDDSDRPSGIPERFSGSNSGNTATLTISGTQAEDEADYYCGAYDKKWVVFGGGTKLTVLG; binds
CX2-Mab #17 (Fab, V domains shown) VH: EVQLLESGGGLVQPGGSLRLSCAASGFTFSSYSMSWVRQAPGKGLEWVSYISSAGSNTYYADSVKGRFTISRDNSKNTLYLQMNSLRAEDTAVYYCARGRAYGYFDYWGQGTLVTVSS VL: DIVLTQPPSVSGAPGQRVTISCSGSSSNIGSNTVYWYQQLPGTAPKLLISSNTKRPSGVPDRFSGSKSGTSASLAITGLQAEDEADYYCQVTDFRLHHVVFGGGTKLTVLG; binds

The reported numbers originate from patent US20160060347A1.
